src = patent US12649746B2

assay: Stability study of levorotatory enantiomer of compounds in solvent (MCT); assay type: physicochemical; conditions: MCT solution, 5° C., Day 5
Property label: Ketorolac (%)
Numbers only; they are read as %.

Challenge: Fill in: Ketorolac (%) of CC(C)OC(=O)OC(C)OC(=O)[C@H]1CCn2c(C(=O)c3ccccc3)ccc21 (stereo partly drawn) [N2(S)] is ___
Response given: 0.2

Challenge: Fill in: Ketorolac (%) of CCC(OC(=O)OC(C)C)OC(=O)[C@H]1CCn2c(C(=O)c3ccccc3)ccc21 (stereo partly drawn) [N16(S)] is ___
Response given: 0.03

Challenge: Fill in: Ketorolac (%) of CCOC(=O)OC(C)OC(=O)[C@H]1CCn2c(C(=O)c3ccccc3)ccc21 (stereo partly drawn) [N12(S)] is ___
Response given: 0.02

Challenge: Fill in: Ketorolac (%) of CCOC(=O)OC(CC)OC(=O)[C@H]1CCn2c(C(=O)c3ccccc3)ccc21 (stereo partly drawn) [N15(S)] is ___
Response given: 0.02

###

Record form. Attribute: Purity (%). Fill in for each entry.
assay: Stability study of levorotatory enantiomer of compounds in solvent (MCT); assay type: physicochemical; conditions: MCT solution, 60° C., Day 15
Numbers only; they are read as %.

Challenge: Fill in: Purity (%) of CC(C)OC(=O)OC(C)OC(=O)[C@H]1CCn2c(C(=O)c3ccccc3)ccc21 (stereo partly drawn) [N2(S)] is ___
Response given: 98.67

Challenge: Fill in: Purity (%) of CCOC(=O)OC(C)OC(=O)[C@H]1CCn2c(C(=O)c3ccccc3)ccc21 (stereo partly drawn) [N12(S)] is ___
Response given: 99.35

Challenge: Fill in: Purity (%) of CCOC(=O)OC(CC)OC(=O)[C@H]1CCn2c(C(=O)c3ccccc3)ccc21 (stereo partly drawn) [N15(S)] is ___
Response given: 99.21

Challenge: Fill in: Purity (%) of CCC(OC(=O)OC(C)C)OC(=O)[C@H]1CCn2c(C(=O)c3ccccc3)ccc21 (stereo partly drawn) [N16(S)] is ___
Response given: 99.51

###

assay: Stability study of levorotatory enantiomer of compounds in solvent (MCT); format: physicochemical; settings: MCT solution, 60° C., Day 30
Record form. Attribute: Purity (%). Fill in for each entry.
Numbers only; they are read as %.

Challenge: Fill in: Purity (%) of CCC(OC(=O)OC(C)C)OC(=O)[C@H]1CCn2c(C(=O)c3ccccc3)ccc21 (stereo partly drawn) [N16(S)] is ___
Response given: 99.27

Challenge: Fill in: Purity (%) of CCOC(=O)OC(C)OC(=O)[C@H]1CCn2c(C(=O)c3ccccc3)ccc21 (stereo partly drawn) [N12(S)] is ___
Response given: 99.05

Challenge: Fill in: Purity (%) of CCOC(=O)OC(CC)OC(=O)[C@H]1CCn2c(C(=O)c3ccccc3)ccc21 (stereo partly drawn) [N15(S)] is ___
Response given: 98.92

Challenge: Fill in: Purity (%) of CC(C)OC(=O)OC(C)OC(=O)[C@H]1CCn2c(C(=O)c3ccccc3)ccc21 (stereo partly drawn) [N2(S)] is ___
Response given: 98.38

###

experiment: Stability study of levorotatory enantiomer of compounds in solvent (MCT); type: physicochemical; conditions: MCT solution, 25° C., Day 15
Property label: Ketorolac (%)
Numbers only; they are read as %.

Challenge: Fill in: Ketorolac (%) of CCOC(=O)OC(C)OC(=O)[C@H]1CCn2c(C(=O)c3ccccc3)ccc21 (stereo partly drawn) [N12(S)] is ___
Response given: 0.04

Challenge: Fill in: Ketorolac (%) of CCC(OC(=O)OC(C)C)OC(=O)[C@H]1CCn2c(C(=O)c3ccccc3)ccc21 (stereo partly drawn) [N16(S)] is ___
Response given: 0.03

Challenge: Fill in: Ketorolac (%) of CC(C)OC(=O)OC(C)OC(=O)[C@H]1CCn2c(C(=O)c3ccccc3)ccc21 (stereo partly drawn) [N2(S)] is ___
Response given: 0.17

Challenge: Fill in: Ketorolac (%) of CCOC(=O)OC(CC)OC(=O)[C@H]1CCn2c(C(=O)c3ccccc3)ccc21 (stereo partly drawn) [N15(S)] is ___
Response given: 0.03
